biological target: Serine/threonine-protein kinase PAK 4 (Homo sapiens) (UniProt O96013)
Sequence (O96013 whole entry, looked up): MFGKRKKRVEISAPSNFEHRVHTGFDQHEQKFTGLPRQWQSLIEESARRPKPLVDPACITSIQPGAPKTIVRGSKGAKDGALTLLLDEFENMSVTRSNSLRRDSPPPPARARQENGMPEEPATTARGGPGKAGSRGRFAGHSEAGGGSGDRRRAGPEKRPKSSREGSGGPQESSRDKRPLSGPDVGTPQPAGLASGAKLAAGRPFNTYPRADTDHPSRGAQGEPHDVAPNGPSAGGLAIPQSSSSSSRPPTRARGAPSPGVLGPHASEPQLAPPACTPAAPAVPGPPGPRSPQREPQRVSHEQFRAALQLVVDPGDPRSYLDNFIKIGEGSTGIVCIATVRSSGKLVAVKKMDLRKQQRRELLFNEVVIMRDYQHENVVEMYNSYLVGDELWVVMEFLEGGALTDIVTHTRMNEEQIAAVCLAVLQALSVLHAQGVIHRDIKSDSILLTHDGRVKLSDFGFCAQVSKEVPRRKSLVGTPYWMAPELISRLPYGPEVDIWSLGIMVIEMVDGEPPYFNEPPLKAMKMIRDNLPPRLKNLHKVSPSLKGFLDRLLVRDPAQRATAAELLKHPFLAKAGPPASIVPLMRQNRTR
# ΔTm listing for each entry below
Your answer should be a plain number; it is taken to be in °C.

INSERT INTO measurements (smiles_input, reported_endpoint, recorded_result) VALUES
  ('COc1cc2ncnc(Nc3ccc(NC(=O)c4ccccc4)cc3)c2cc1OC', 'ΔTm', 0);

Provide the documented ΔTm with Serine/threonine-protein kinase PAK 4 (Homo sapiens) (UniProt O96013) as the system for O=C(O)Cc1ccc(O)c([N+](=O)[O-])c1
1.2

Also O=C1Nc2cc(Br)ccc2/C1=C1/Nc2ccccc2/C1=N\O , if possible.
1.8

Also N#CCCc1ccc2c(c1)-c1[nH]c3ccc([N+](=O)[O-])cc3c1CC(=O)N2 , if possible.
4.3

COc1cc2ncnc(Nc3ccc(F)c(Cl)c3)c2cc1OCCCN1CCOCC1 , same question.
1.2

And for Cc1cncc2cccc(S(=O)(=O)N3CCCNC[C@@H]3C)c12 ?
0.7

Moving on to CC(C)n1cnc2c(NCc3ccccc3O)nc(NCCCO)nc21
0.5

How about COC1=C2C[C@@H](C)C[C@H](OC)[C@H](O)[C@@H](C)/C=C(\C)[C@H](OC(N)=O)[C@@H](OC)/C=C\C=C(/C)C(=O)NC(=CC1=O)C2=O ?
-0.2

----------
Quick record: ΔTm, Serine/threonine-protein kinase Nek2 (Homo sapiens).
Kindly answer with a numeric value in °C, unit omitted.

INSERT INTO results (smiles_input, reported_endpoint, recorded_result) VALUES
  ('O=c1cc(N2CCOCC2)oc2c1ccc1ccccc12', 'ΔTm', 0.6),
  ('Brc1c(Br)c(Br)c2[nH]nnc2c1Br', 'ΔTm', -0.1),
  ('CC(C)n1cnc2/c(=N/c3cccc(Cl)c3)nc(NCCO)[nH]c21', 'ΔTm', 1.3),
  ('O=C1Cc2c([nH]c3ccc([N+](=O)[O-])cc23)-c2ccccc2N1', 'ΔTm', 2.2);

Proceeding to the next compound to report its ΔTm.
Which ΔTm is reported with Serine/threonine-protein kinase Nek2 (Homo sapiens) for this entry: Cc1cc(C=C2C(=O)C=CC2=O)cc(C)c1O ?
0.8

----------
target: Cyclin-dependent kinase 16 (Homo sapiens) (UniProt Q00536)
Sequence (Q00536 whole entry): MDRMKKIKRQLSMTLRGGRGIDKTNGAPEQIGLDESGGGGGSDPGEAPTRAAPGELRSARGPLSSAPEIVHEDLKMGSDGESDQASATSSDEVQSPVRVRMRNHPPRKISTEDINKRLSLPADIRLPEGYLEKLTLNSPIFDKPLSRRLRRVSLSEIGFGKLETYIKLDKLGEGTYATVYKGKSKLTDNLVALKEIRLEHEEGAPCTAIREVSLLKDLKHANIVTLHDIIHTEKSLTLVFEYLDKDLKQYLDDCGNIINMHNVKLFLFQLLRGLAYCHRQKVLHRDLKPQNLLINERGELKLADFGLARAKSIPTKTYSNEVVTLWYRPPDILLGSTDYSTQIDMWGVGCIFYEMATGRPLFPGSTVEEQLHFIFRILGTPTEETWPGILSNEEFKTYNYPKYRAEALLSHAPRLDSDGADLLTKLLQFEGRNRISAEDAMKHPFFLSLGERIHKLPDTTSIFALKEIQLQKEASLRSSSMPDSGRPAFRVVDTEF
just bin them by ΔTm: label 0 (below -0.6 °C), label 1 (-0.6 °C to below 0.2 °C), label 2 (0.2 °C or more)

INSERT INTO assay_data (smiles_input, category) VALUES
  ('Cc1cc2ncc(-c3ccccc3)nc2cc1C', 'label 2');

Would you mind sorting Cc1ccc(NC(=O)c2ccc(CN3CCN(C)CC3)cc2)cc1Nc1nccc(-c2cccnc2)n1 into the appropriate category?
label 1

How about C/C(O)=C(\C#N)C(=O)Nc1cc(Br)ccc1Br ?
label 0

Next compound: Cc1ccc(NC2=CC(=O)c3sc(C)nc3C2=O)cc1
label 0

Input O=C1Nc2ccc(I)cc2/C1=C1/Nc2ccccc2/C1=N\O
label 2

Again, but for c1ccc(-c2n[nH]c3c2oc2ccccc23)cc1
label 1

# iterate: O=S(=O)(NCCNC/C=C/c1ccc(Br)cc1)c1cccc2cnccc12
label 2

Try this compound too: CC(C)c1cc(/C=C(\C#N)C(=O)NCCCc2ccccc2)cc(C(C)C)c1O
label 1

And for O=C1Nc2cc(Br)ccc2/C1=C1/Nc2ccccc2/C1=N\O ?
label 0

Do the same for O=C1C=C2C(=Nc3c2c2c(c4c3=NC3=C4CCC=C3)C=NC=2)CC1 please
label 2

And what about the compound O=C1Nc2ccc(I)cc2/C1=C\c1cc(Br)c(O)c(Br)c1 ?
label 1
